- Tested on: U-251
- assay info: NCI tumour cell line growth inhibition, 48 h
Activity calls are given as the source filed them. No stated cut-off is given here; in the data, active = GI50 up to about 1.1 µM and inactive = higher.
Reported GI50 values for a set of compounds
endpoint name: GI50

>>> print(df.to_string())
                                   compound  endpoint_name  recorded_measurement
0  CCn1cc(C(=O)O)c(=O)c2cc(F)c(N3CCN(CN4C(=O)/C(=N\NC(=O)c5ccncc5)c5cc(Cl)ccc54)CC3)cc21           GI50      33 µM (inactive)
1    COc1cc2nncc(SCc3ccc(Cl)c(Cl)c3)c2cc1OC           GI50    50.5 µM (inactive)
2  CCc1cc2c(O)c(c1)Cc1cc(CC)cc(c1O)Cc1cc(CC)cc(c1O)Cc1cc(CC)cc(c1O)Cc1cc(CC)cc(c1O)Cc1cc(CC)cc(c1O)Cc1cc(CC)cc(c1O)C2           GI50    62.8 µM (inactive)
3  O=C(CCC(=O)C1CCC/C1=N/O)Nc1ccc(Cl)cc1 (centres undefined)           GI50   > 100 µM (inactive)
4                     Nc1c2ccccc2nc2nccnc12           GI50   > 100 µM (inactive)
5                      O=C1CCSSCCC(=O)NCCN1           GI50   > 100 µM (inactive)
6       CCOC(=O)c1nc2ccccc2nc1Oc1ccc(OC)cc1           GI50   > 100 µM (inactive)
7  CCOC(=O)/C=C(\C(=O)OCC)n1ccc(=O)n(CC(=O)OCC)c1=O           GI50    6.25 µM (inactive)
8  N#Cc1ccccc1NC(=O)C(=O)c1c(O)c2ccccc2oc1=O           GI50   > 100 µM (inactive)

====

- Test system: NCI/ADR-RES
- assay info: NCI tumour cell line growth inhibition, 48 h
Activity calls are given as the source filed them. No stated cut-off is given here; in the data, active = GI50 up to about 1.1 µM and inactive = higher.
Possible outcomes: TRUE = active, FALSE = inactive

compound	label class
OC1(c2ccccc2)CSC2=Nc3ccccc3C3CCN1N23 (configuration not stated)	FALSE
C=CCN1C(=O)CC(=O)N(NC2=NNC3(C(=O)N2)c2ccccc2-c2ccccc23)C1=S	FALSE
O=C1OC(=O)C2CCCC3CCCC1C32 (configuration not stated)	FALSE
CC1=C[C@@H]2Cc3nc4cc(Cl)ccc4c(N)c3[C@H](C1)C2	FALSE
COc1cc([N+](=O)[O-])c(S(=O)(=O)O)cc1-n1nc(-c2ccccc2)n[n+]1-c1cc(S(=O)(=O)[O-])c([N+](=O)[O-])cc1OC	FALSE
O=C(Nc1ccc(Cl)cc1)c1cc(S(=O)(=O)Nc2nc3cccnc3[nH]2)c(SSc2cc(Cl)c(C(=O)Nc3ccc(Cl)cc3)cc2S(=O)(=O)Nc2nc3cccnc3[nH]2)cc1Cl	FALSE
C/C=C1/CN2CCC34c5ccccc5N5C(=O)C(C6CC78c9ccccc9N9C(=O)C=CC(C%10CC7N6C/C%10=C/C)C98)=CC(C1CC23)C54 (configuration not stated)	FALSE
O=C(O)CC1(C(=O)O)CCCCC1	FALSE
C=C1C/C(=C/C)C(=O)O[C@@H]2CCN3CC=C(COC(=O)[C@]1(C)O)[C@H]23 [SENECIPHYLLINE]	FALSE
CC1OC2OC3C(OCC(O)C3O)OC(=O)[C@]34CCC(C)(C)CC3C3=CCC5[C@@]6(C)C[C@H](O)[C@H](OC7OC(CO)C(O)C(O)C7OC7OCC(OC(=O)CC(C)(O)CC(=O)OC1C(O)C2O)C(O)C7O)[C@@](C)(CO)C6CC[C@@]5(C)[C@]3(C)CC4 (some centres not stated)	FALSE
CCOC(=O)Cc1csc2[n+]1C(=O)/C(=C/c1cccc(OC)c1O)S2	FALSE
N#Cc1c(O)c(/C=N/c2ccc(Cl)cc2)c(=O)n2c1[nH]c1ccccc12	FALSE
Cc1ccc2c(c1)C(=O)C1(C2)Cc2cccc(C)c2C1=O (configuration not stated)	FALSE
CN(C)CCNc1c2ccccc2c2c3c(cccc13)C(=O)N(CCN(C)C)C2=O	TRUE
COCn1c(C)c(C)c2c(=O)oc(C)nc21	FALSE
CCn1cc(C(=O)O)c(=O)c2cc(F)c(N3CCN(CN4C(=O)/C(=N\NC(=O)c5ccncc5)c5cc(Cl)ccc54)CC3)cc21	FALSE
O=C(NC(N1CCN(c2cc3c(cc2F)c(=O)c(C(=O)O)cn3C2CC2)CC1)(C(F)(F)F)C(F)(F)F)c1ccccc1	FALSE
COc1c(O)cc2c(c1O)C(=O)/C(=C/c1ccc(O)cc1)CO2	FALSE
COc1cc2nncc(SCc3ccc(Cl)c(Cl)c3)c2cc1OC	FALSE
Cc1c[nH]c2c(O)cc3c(c12)[C@H](CCl)CN3C(=O)c1cc2cc(NC(=O)Nc3ccc4[nH]c(C(=O)N5C[C@@H](CCl)c6c5cc(O)c5[nH]cc(C)c65)cc4c3)ccc2[nH]1 [BIZELESIN]	TRUE
CC(=O)Oc1ccc(N2C(=O)C3c4[nH]c5ccccc5c4C4CCC(C(C)(C)C)CC4C3C2=O)cc1 (configuration not stated)	FALSE
COC(=O)CCCC(=O)C1=NN(c2ccc(Cl)cc2)Cc2ccccc2N1	FALSE
CCN(CC)C(=S)SS(=O)(=O)c1cccc(N)c1	FALSE
C/C(=C\COc1ccc2ccc(=O)oc2c1)CCC(=O)C(C)(C)O	FALSE
Oc1ccc(-c2nc3ccc(Br)cc3s2)cc1	FALSE
COC(=O)[C@]1(C)CCC[C@]2(C)[C@@H](CCC(=O)C(C)C)[C@]3(C=O)O[C@@H]3C[C@H]21	FALSE
CCOC(=O)c1nc2ccccc2nc1Oc1ccc(OC)cc1	FALSE

The measurements presented in this section are drawn from ChEMBL document CHEMBL1201862.
